Where do the numbers come from? From ChEMBL document CHEMBL6134800.

System: HepG2
ASSAY_DETAILS: Cytotoxicity against human HepG2 cells assessed as reduction in cell viability incubated for 24 hrs by CCK-8 assay
Type: functional, cell-based
EXPERIMENTAL_CONTEXT: HepG2, 24 h
MEASURE_NAME: pIC50
The quantity pIC50 is defined as the negative base-10 logarithm of the molar concentration.

Ask: Data request, read-out pIC50, for FC(F)(F)C1(Nc2ccccc2)Cc2ccsc2-c2nc3ccccc3n21 (stereo unspecified)
Result: 5.02

* * *

Here the recorded IC50 is given for each entry.
ASSAY_DETAILS: Cytotoxicity against human BEAS-2B cells assessed as reduction in cell viability by MTT assay
Format: toxicity, cell-based
Give just the numeric value; µg/mL need not be written.

Use the examples below as a reference point.
COC(=O)c1nc2nc(Oc3ccccc3)c(C#N)c(-c3ccc(OC)cc3)c2c(N)c1C(=O)OC ... 51.3
COC(=O)c1nc2nc(Oc3ccccc3)c(C#N)c(-c3ccc([N+](=O)[O-])cc3)c2c(N)c1C(=O)OC ... 51.3
COc1cccc2c1C(=O)c1c(O)c3c(c(O)c1C2=O)C[C@@](O)(C(=O)CO)C[C@@H]3O[C@H]1C[C@H](N)[C@H](O)[C@H](C)O1 [DOXORUBICIN] ... 4.18

Ask: Data request, read-out IC50, for O=NN(CCCl)C(=O)NCCCl [CARMUSTINE]
Result: 6.52

Ask: Next up: COC(=O)c1nc2nc(Oc3ccccc3)c(C#N)c(-c3cccc([N+](=O)[O-])c3)c2c(N)c1C(=O)OC
Result: 4.09
